- Tested on: Plasma
- PROTOCOL DETAILS: Drug level in Sprague-Dawley rat plasma at 10 mg/kg, po
- Assay type: ADME, organism-based
- Set-up: dose 10 mg/kg, route oral
- STATED CONDITIONS: in vivo
Threshold 2000 nM. concentration below it: yes (1). concentration at it or above: no (0).

* N#CC1(c2ccccc2)CCN(Cc2cc(C(=O)O)c(=O)n3ccccc23)CC1 | yes (1)
* N#CC1(c2cccnc2)CCN(Cc2cc(C(=O)O)c(=O)n3ccccc23)CC1 | yes (1)
* Cc1ccccc1C1(C#N)CCN(Cc2cc(C(=O)O)c(=O)n3ccccc23)CC1 | yes (1)
* N#CC1(c2ccccn2)CCN(Cc2cc(C(=O)O)c(=O)n3ccccc23)CC1 | yes (1)
* Cc1ccnc(C2(C#N)CCN(Cc3cc(C(=O)O)c(=O)n4ccccc34)CC2)c1 | no (0)

These data points were gathered from ChEMBL document CHEMBL1799933.
